src = PubChem BioAssay (Tox21)

test: Caspase-3/7 induction in CHO-K1 cells by small molecules, qHTS cell viability counter screen (AID 1346979); conditions: CellTiter-Fluor fluorescence, 17 h; series mostly up to 92.4 µM; also: nearly all actives have a fitted effect of over 35% in size
Inconclusive results are not listed. Active and inactive are the calls of the source. Calls follow the shape of the dose curve; as a rule, active = well fitted cell-killing curve with a large enough effect in the repeat runs; inconclusive = weak or mixed curves, or effect the other way; inactive = no such curve, though single readings can be large or run the other way.
Reply using exactly one outcome from True (active), False (inactive)

Compound	Classification
Cc1cc(Br)ccc1NC(=O)CCl	True
[Cl][Dy]([Cl])[Cl]	False
CCCC(C)C=O (centres undefined)	False
CC(C)=CCC[C@H](C)CC=O	False
Brc1cc(Br)cc(Br)c1	False
CCCCCCCC/C=C\CCCCCCCC(=O)N(CCO)CCO	True

Query block: Tell me the recorded outcome of this test for "Oc1cccc2c(O)cccc12" .
Result block: True

Query block: Param item: "c1ccc(C[P+](c2ccccc2)(c2ccccc2)c2ccccc2)cc1"
Result block: True

Query block: Param item: O=C1OC(O)C(C(Cl)Cl)=C1Cl (centres undefined)
Result block: True

Query block: Param item: "CC(C)c1ccc2sc3ccccc3c(=O)c2c1"
Result block: False

Query block: Param item: "C=Cc1ccncc1"
Result block: False

Query block: Param item: "Cc1ccc(S(=O)(=O)C(I)I)cc1"
Result block: True

Query block: Param item: "CCCCCCCCSCc1cc(C)c(O)c(CSCCCCCCCC)c1"
Result block: True

Query block: Param item: "O=C1CCC/C=C\CCCCCCCCCC1"
Result block: False

Query block: Param item: CC(Cc1ccc(O)c(O)c1)C(C)Cc1ccc(O)c(O)c1 (centres undefined)
Result block: True

Query block: Param item: CCOC(=O)C1=NN(c2ccc(Cl)cc2Cl)C(C)(C(=O)OCC)C1 (centres undefined)
Result block: False

Query block: Param item: "CCC(=O)OC/C=C(\C)CCC=C(C)C"
Result block: False

Query block: Param item: "C=COCCCC"
Result block: False

Query block: Param item: "CN(C[C@@H](CC[N+]12CCC(C3CCCCC3)(CC1)CC2)c1ccc(Cl)c(Cl)c1)C(=O)c1cc(C(F)(F)F)cc(C(F)(F)F)c1"
Result block: True

Query block: Param item: "O=C(O)CN(CCCN(CC(=O)O)CC(=O)O)CC(=O)O"
Result block: True

Query block: Param item: "O[Si](c1ccccc1)(c1ccccc1)c1ccccc1"
Result block: True

Query block: Param item: "CS(=O)(=O)c1ccc([C@@H](CC2CCCC2)C(=O)Nc2cnccn2)cc1Cl"
Result block: True

----------
test: qHTS assay to identify small molecule agonists of the estrogen related receptor (ERR) signaling pathway (AID 1224820); settings: ERR reporter cell line, luciferase agonist mode; series mostly up to 46.1 µM
Results filed as inconclusive are left out. Calls of active or inactive are those of the source. Calls come from the whole dose curve; as a rule, active = well fitted activation curve with a large enough effect in the repeat runs; inconclusive = weak or mixed curves; inactive = no such curve, though single readings can be large or run the other way.
Reply using exactly one outcome from Y (active), N (inactive)

Molecule	Classification
O=C(O)/C(=C/c1c(C(=O)O)[nH]c2cc(Cl)cc(Cl)c12)c1ccccc1	N

Query block: Tell me the recorded outcome of this test for "Nc1ccc(-c2nc3ccc(-c4nc5ccc(N)cc5[nH]4)cc3[nH]2)cc1" .
Result block: N

Query block: Param item: COC1(C2=NCCN2)COc2ccccc2O1 (stereo not given)
Result block: N

Query block: Param item: "NCCCCC(=O)O"
Result block: N

----------
Test: qHTS assay to identify small molecule antagonists of the glucocorticoid receptor (GR) signaling pathway - cell viability counter screen (AID 720693); also: nearly all actives have a fitted effect of over 55% in size
Conditions: GR-bla HeLa viability, CellTiter-Glo luminescence, 18 h, with 5 nM dexamethasone present; series mostly up to 58.5 µM
Text: National Center for Advancing Translational Sciences [NCATS] NIH Chemical Genomics Center [NCGC] U.S. Environmental Protection Agency [EPA] National Institutes of Environmental Health Sciences [NIEHS] National Toxicology Program [NTP] U.S. Food and Drug Administration [FDA] The Glucocorticoid receptor (GR) is one of the members of the nuclear receptor family of ligand-dependent transcription factors. […] The activation of the reporter gene under culture conditions can be detected by fluorescence intensity. […]
Records with an inconclusive call do not appear. Active and inactive are the calls of the source. The call rests on the fitted dose curve; in most records, active means well fitted cell-killing curve with a large enough effect in the repeat runs; inconclusive means weak or mixed curves, or effect the other way; inactive means no such curve, though single readings can be large or run the other way.
Reply using exactly one outcome from active, inactive

Answered cases to consult:
Substance smiles	Classification
CC(C)=CCC/C(C)=C/CC/C(C)=C/CC/C=C(\C)CC/C=C(\C)CCC=C(C)C	inactive
CCOC(=O)[C@H](CCc1ccccc1)N[C@@H](C)C(=O)N1[C@H](C(=O)O)C[C@H]2CCCC[C@@H]21	inactive
CN(C[C@@H](CC[N+]12CCC(C3CCCCC3)(CC1)CC2)c1ccc(Cl)c(Cl)c1)C(=O)c1cc(C(F)(F)F)cc(C(F)(F)F)c1	active

Query block: Tell me the recorded outcome of this test for "COc1cc(/C=C/C(=O)CC(=O)/C=C/c2ccc(O)c(OC)c2)ccc1O" .
Result block: inactive
